biological target: UniProt P43116; experiment: cAMP HTRF agonist assay, EP2; conditions: cAMP HTRF agonist assay
Sequence (P43116 whole entry): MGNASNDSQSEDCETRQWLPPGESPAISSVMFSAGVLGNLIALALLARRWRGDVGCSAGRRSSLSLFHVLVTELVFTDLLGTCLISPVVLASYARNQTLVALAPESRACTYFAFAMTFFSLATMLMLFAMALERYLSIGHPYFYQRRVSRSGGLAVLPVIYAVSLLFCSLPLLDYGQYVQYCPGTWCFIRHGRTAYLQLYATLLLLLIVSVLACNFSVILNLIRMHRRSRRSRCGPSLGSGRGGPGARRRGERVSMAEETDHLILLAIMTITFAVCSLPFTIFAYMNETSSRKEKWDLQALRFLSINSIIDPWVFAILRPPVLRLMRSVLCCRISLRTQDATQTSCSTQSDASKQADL
measure: EC50 (nM)
Expressed in nM, but write only the number.

compound: O=C(O)CCCCCCC1C(=O)NC(=O)N1CCC(O)C1CCCCC1 (centres unmarked) [BW245C]
EC50 (nM): 790

Alright, here's another compound for you.
Sure, the documented EC50 for CC#CCC(C)[C@H](O)/C=C/[C@@H]1[C@H]2C/C(=C/CCCC(=O)O)C[C@H]2C[C@H]1O (some centres unmarked) is 144

---

target: IP (Homo sapiens, UniProt P43119); test: Recombinant human IP receptor cAMP assay after elimination of receptor reserve (transient CHO); assay type: cell-based; set-up: expressed in transfected cells; conditions: following elimination of receptor reserve; n = 9; read-out: EC50 [95% CI], recombinant IP receptor cAMP
Sequence (P43119 whole entry): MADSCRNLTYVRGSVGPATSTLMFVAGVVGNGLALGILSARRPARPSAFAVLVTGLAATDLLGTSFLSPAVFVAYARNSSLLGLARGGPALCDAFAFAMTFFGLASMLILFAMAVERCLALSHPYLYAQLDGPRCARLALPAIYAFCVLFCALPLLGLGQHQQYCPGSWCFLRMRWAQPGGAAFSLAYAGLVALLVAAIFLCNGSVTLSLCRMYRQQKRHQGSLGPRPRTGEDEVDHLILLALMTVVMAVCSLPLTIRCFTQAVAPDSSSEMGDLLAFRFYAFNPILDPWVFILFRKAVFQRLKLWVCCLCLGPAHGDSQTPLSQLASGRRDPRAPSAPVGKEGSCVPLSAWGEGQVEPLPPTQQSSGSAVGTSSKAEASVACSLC
measure: pEC50
Scale note: pEC50 = -log10(concentration in M).

Sure, the documented pEC50 for CC(C)N(CCCCOCC(=O)O)c1cnc(-c2ccccc2)c(-c2ccccc2)n1 [compound 2, MRE269] is 6.82

---

# Lookup of reported Ki keyed by entry
target: monkey IP; test: Radioligand binding, monkey IP ([3H]-iloprost)
Expressed in nM, but write only the number.

compound: O=C(O)COC[C@H]1CC[C@H](COC(=O)N(c2ccccc2)c2cccc(F)c2)CC1
measure: Ki
reported_result: 2.6

Sure, the documented Ki for CC#CCC(C)[C@H](O)/C=C/[C@@H]1[C@H]2C/C(=C/CCCC(=O)O)C[C@H]2C[C@H]1O (some centres unmarked) is 1.6

---

assay: Rat PK (iv and oral); assay type: in vivo; settings: po 10 mg/kg (5m 10.5)
measure: Tmax (min)

smiles_text: O=C(O)COC[C@H]1CC[C@H](COC(=O)N(c2ccccc2)c2ccc(F)cc2)CC1
Tmax, min: 18
--
smiles_text: O=C(O)COC[C@H]1CC[C@H](COC(=O)N(c2ccccc2)c2cccc(F)c2)CC1
Tmax, min: 18
--
smiles_text: O=C(O)COC[C@H]1CC[C@H](COC(=O)N(c2ccccc2)c2ccc(Cl)c(F)c2)CC1
Tmax, min: 30
--
smiles_text: COc1cccc(N(C(=O)OC[C@H]2CC[C@H](COCC(=O)O)CC2)c2ccccc2)c1
Tmax, min: 18
--
smiles_text: O=C(O)COC[C@H]1CC[C@H](COC(=O)N(c2ccccc2)c2ccc(Cl)cc2)CC1
Tmax, min: 90

[P] O=C(O)COC[C@H]1CC[C@H](COC(=O)N(c2ccccc2)c2ccc(F)c(F)c2)CC1
[Q] COc1ccc(N(C(=O)OC[C@H]2CC[C@H](COCC(=O)O)CC2)c2ccccc2)cc1
Q) Among P and Q , whose measured Tmax is the smaller figure? Please indicate the selected item by its label.
A) Q

---

assay: Rat PK (iv and oral); format: in vivo; settings: terminal half-life after iv 2 mg/kg (5m 2.1)
measure: T1/2 (h)

Recorded results for 4 molecules are shown here.
molecule: O=C(O)COC[C@H]1CC[C@H](COC(=O)N(c2ccccc2)c2ccc(Cl)cc2)CC1 [5c]
T1/2, h: 6.7
//
molecule: O=C(O)COC[C@H]1CC[C@H](COC(=O)N(c2ccccc2)c2ccc(F)cc2)CC1 [5l]
T1/2, h: 3.9
//
molecule: COc1cccc(N(C(=O)OC[C@H]2CC[C@H](COCC(=O)O)CC2)c2ccccc2)c1 [5j]
T1/2, h: 3.3
//
molecule: O=C(O)COC[C@H]1CC[C@H](COC(=O)N(c2ccccc2)c2cccc(F)c2)CC1 [5g]
T1/2, h: 3.4

[a] O=C(O)COC[C@H]1CC[C@H](COC(=O)N(c2ccccc2)c2ccc(F)c(F)c2)CC1 [5o]
[b] COc1ccc(N(C(=O)OC[C@H]2CC[C@H](COCC(=O)O)CC2)c2ccccc2)cc1 [5e]
[c] O=C(O)COC[C@H]1CC[C@H](COC(=O)N(c2ccccc2)c2ccc(Cl)c(F)c2)CC1 [5m]
Q) Sort low-to-high on T1/2, please. Put the labels in the requested order and write them down.
A) b, a, c

---

molecular target: rat IP (Rattus norvegicus, UniProt P43253); assay: HTRF cAMP assay, recombinant rat IP receptor; conditions: HTRF (cAMP) rat IP receptor assay; mean of at least three determinations
Sequence (P43253 whole entry): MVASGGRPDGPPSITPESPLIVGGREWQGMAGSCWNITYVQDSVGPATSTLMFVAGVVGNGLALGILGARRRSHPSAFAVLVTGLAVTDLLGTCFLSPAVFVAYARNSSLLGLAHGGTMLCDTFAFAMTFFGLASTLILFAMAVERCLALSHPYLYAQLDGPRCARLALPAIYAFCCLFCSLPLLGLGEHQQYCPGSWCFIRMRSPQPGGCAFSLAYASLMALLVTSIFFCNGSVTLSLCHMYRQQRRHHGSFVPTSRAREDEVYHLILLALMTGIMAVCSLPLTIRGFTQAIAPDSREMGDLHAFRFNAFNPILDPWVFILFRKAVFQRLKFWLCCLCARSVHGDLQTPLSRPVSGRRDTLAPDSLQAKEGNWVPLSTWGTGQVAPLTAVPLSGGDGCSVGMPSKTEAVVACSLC
measure: EC50 (nM)

smiles_text: COc1ccc(N(C(=O)OC[C@H]2CC[C@H](COCC(=O)O)CC2)c2ccccc2)cc1
EC50, nM: 165
//
smiles_text: O=C(O)COC[C@H]1CC[C@H](COC(=O)N(c2cccc(F)c2)c2ccc(Cl)c(F)c2)CC1
EC50, nM: 2720

[P] O=C(O)COC[C@H]1CC[C@H](COC(=O)N(c2ccc(F)cc2)c2cccc(F)c2)CC1
[Q] Cc1ccc(N(C(=O)OC[C@H]2CC[C@H](COCC(=O)O)CC2)c2ccccc2)cc1
[R] O=C(O)COC[C@H]1CC[C@H](COC(=O)N(c2ccccc2)c2cccc(Cl)c2)CC1
[S] O=C(O)COC[C@H]1CC[C@H](COC(=O)N(c2ccc(Cl)cc2)c2cccc(F)c2)CC1
Q) Sort low-to-high on EC50, please. Put the labels in the requested order and write them down.
A) Q, R, P, S
(Q: 174 nM, R: 272 nM, P: 1630 nM, S: 3190 nM)

[1] O=C(O)COC[C@H]1CC[C@H](COC(=O)N(c2ccccc2)c2ccccc2)CC1
[2] COc1ccc(N(C(=O)OC[C@H]2CC[C@H](COCC(=O)O)CC2)c2cccc(F)c2)cc1
Q) Field: entry with larger EC50 (options 1 / 2 ). Please indicate the selected item by its label.
A) 2

---

test: Rat PK (iv and oral); assay type: in vivo; conditions: Sprague-Dawley, plasma, after oral administration 10 mg/kg (5m 10.5)
measure: AUC(0-inf) (ng·h/mL)

smiles_text: O=C(O)COC[C@H]1CC[C@H](COC(=O)N(c2ccccc2)c2ccc(Cl)c(F)c2)CC1
AUC(0-inf), ng·h/mL: 2600

smiles_text: O=C(O)COC[C@H]1CC[C@H](COC(=O)N(c2ccccc2)c2cccc(F)c2)CC1
AUC(0-inf), ng·h/mL: 7900

smiles_text: O=C(O)COC[C@H]1CC[C@H](COC(=O)N(c2ccccc2)c2ccc(Cl)cc2)CC1
AUC(0-inf), ng·h/mL: 14600

smiles_text: COc1ccc(N(C(=O)OC[C@H]2CC[C@H](COCC(=O)O)CC2)c2ccccc2)cc1
AUC(0-inf), ng·h/mL: 3400

---

Biological target: human DP1 receptor (Homo sapiens)
Construct: expressed in transfected cells
Sequence (Q13258 1-359): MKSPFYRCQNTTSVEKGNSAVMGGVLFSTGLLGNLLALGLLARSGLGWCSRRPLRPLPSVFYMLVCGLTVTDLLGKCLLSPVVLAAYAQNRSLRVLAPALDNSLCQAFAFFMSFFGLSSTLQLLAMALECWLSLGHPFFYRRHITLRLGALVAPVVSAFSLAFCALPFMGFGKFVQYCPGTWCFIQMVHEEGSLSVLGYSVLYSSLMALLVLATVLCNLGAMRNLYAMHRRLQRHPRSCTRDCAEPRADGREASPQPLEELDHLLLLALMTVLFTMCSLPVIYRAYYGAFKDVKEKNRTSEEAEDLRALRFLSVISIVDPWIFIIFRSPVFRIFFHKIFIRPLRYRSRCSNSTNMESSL
Test: HTRF cAMP assay, recombinant human DP1 receptor in CHO-K1 cells
Format: cell-based
Details: HTRF (cAMP) human DP1 receptor assay; mean of at least three determinations; read-out: EC50 hDP1
Procedure: The new compounds were tested for functional agonist activity in a standard (Cisbio) cAMP assay using recombinant IP or DP1 receptors stably expressed in CHO-K1 cells. […] For development of cAMP accumulation assays, recombinant IP or DP1 receptors were stably expressed in CHO-K1 cells and clonal cell lines derived following standard protocols. […] Plates were then incubated at room temperature for 1 h prior to reading. […]
pEC50: −log10 of the molar value.
measure: pEC50

Recorded results for 3 compounds are shown here.
smiles_text: O=C(O)COC[C@H]1CC[C@H](COC(=O)N(c2ccccc2)c2ccc(Cl)c(F)c2)CC1
pEC50: 5.69
--
smiles_text: O=C(O)COC[C@H]1CC[C@H](COC(=O)N(c2ccccc2)c2cccc(Cl)c2)CC1
pEC50: 5.29
--
smiles_text: COc1ccc(N(C(=O)OC[C@H]2CC[C@H](COCC(=O)O)CC2)c2ccccc2)cc1
pEC50: 6.62

[A] O=C(O)COC[C@H]1CC[C@@H](COC(=O)N(c2ccccc2)c2ccccc2)CC1
[B] Cc1ccc(N(C(=O)OC[C@H]2CC[C@H](COCC(=O)O)CC2)c2ccccc2)cc1
[C] O=C(O)COC[C@H]1CC[C@H](COC(=O)N(c2ccc(F)cc2)c2ccc(F)cc2)CC1
[D] O=C(O)COC[C@H]1CC[C@@H](COC(=O)N(c2ccccc2)c2cccc(F)c2)CC1
Q) Sort low-to-high on pEC50, please. Put the labels in the requested order and write them down.
A) D, A, C, B
(D: 5.41, A: 5.77, C: 6.07, B: 6.49)
